Tested target: T1, Peptide-2 (human, phosphothreonine 212, phosphothreonine 217 (tau 2N4R numbering); short chain biotin (SCBiot) and dPEG4 at the N-terminus; amide at the C-terminus)
T1 construct: also called pT212/pT217-tau peptide (Peptide-2)
T1 sequence (peptide, as listed by the source): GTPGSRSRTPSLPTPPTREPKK
Experiment notes: SPR ProteOn, mAb captured, peptide as analyte; range of n=2
For each of the binders below, state its kon.
The reply should be a number in M⁻¹ s⁻¹, with the unit left off.

Q. Would you kindly share the measured kon for B235 (antibody, human IgG1, V domains shown, Humanized (HFA) PT3 variant, human IgG1/kappa; also called VH91/VL77) VH: EVQLLESGGGLVQPGGSLRLSCAASGFTFSSYAMSWVRQAPGKGLEWVSSISKGGNTYYADSVKGRFTISRDNSKNTLYLQMNSLRAEDTAVYYCAKGWGDYGWFAYWGQVTLVTVSS VL: DIQMTQSPSSLSASVGDRVTITCKASQDINRYLNWFQQKPGKAPKSLIYRANRLLDGVPSRFSGSGSGTDFTLTISSLQPEDFATYYCLQYDEFPLTFGQGTKLEIK ?
A. 2.84e+06

Q. Also B280 (antibody, human IgG1, V domains shown, Humanized (HFA) PT3 variant, human IgG1/kappa; also called VH91/VL80) VH: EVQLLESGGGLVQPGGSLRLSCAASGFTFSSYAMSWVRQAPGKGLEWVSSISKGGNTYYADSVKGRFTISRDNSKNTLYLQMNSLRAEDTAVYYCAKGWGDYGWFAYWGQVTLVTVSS VL: DIVMTQTPLSSPVTLGQPASISCKASQDINRYLNWLQQRPGQPPRLLIYRANRLLDGVPDRFSGSGAGTDFTLKISRVEAEDVGVYYCLQYDEFPLTFGQGTKLEIK ?
A. 2.21e+06

Q. Input B296 (antibody, human IgG1, kappa, V domains shown, Humanized PT3, human IgG1/kappa; also called VH92/VL77; HFA-PT3) VH: QVQLVESGGGVVQPGRSLRLSCAASGFTFSSYAMSWVRQAPGKGLEWVASISKGGNTYYADSVKGRFTISRDNSKNTLYLQMNSLRAEDTAVYYCARGWGDYGWFAYWGQVTLVTVSS VL: DIQMTQSPSSLSASVGDRVTITCKASQDINRYLNWFQQKPGKAPKSLIYRANRLLDGVPSRFSGSGSGTDFTLTISSLQPEDFATYYCLQYDEFPLTFGQGTKLEIKR
A. 3.1e+06

Q. // repeat for B282 (antibody, human IgG1, V domains shown, Humanized (HFA) PT3 variant, human IgG1/kappa; also called VH93/VL77) VH: QVQLVESGGGLVKPGGSLRLSCAASGFTFSSYAMSWIRQAPGKGLEWVSSISKGGNTYYADSVKGRFTISRDNAKNSLYLQMNSLRAEDTAVYYCARGWGDYGWFAYWGQVTLVTVSS VL: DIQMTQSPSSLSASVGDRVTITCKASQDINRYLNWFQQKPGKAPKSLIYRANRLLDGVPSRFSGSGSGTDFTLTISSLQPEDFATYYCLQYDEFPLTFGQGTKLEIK and report
A. 2.34e+06

Q. Same question, B252 (antibody, human IgG1, V domains shown, Humanized (HFA) PT3 variant, human IgG1/kappa; also called VH93/VL80) VH: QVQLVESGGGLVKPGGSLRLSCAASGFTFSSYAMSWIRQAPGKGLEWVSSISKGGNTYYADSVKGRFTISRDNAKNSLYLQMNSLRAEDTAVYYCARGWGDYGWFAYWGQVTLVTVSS VL: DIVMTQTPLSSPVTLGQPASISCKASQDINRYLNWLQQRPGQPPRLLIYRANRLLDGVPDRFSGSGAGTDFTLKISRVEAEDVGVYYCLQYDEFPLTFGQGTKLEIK this time
A. 3.95e+06
